System: kaempferol
Test: Percent conversion of substrate by E. coli cells expressing sulfotransferases
Type: cell-based, Escherichia coli
Details: 87 μM kaempferol, M9 medium, overnight 37° C.
measure: percent conversion of kaempferol (%)
Express your answer in %, writing the number without its unit.

[Q] // lookup percent conversion of kaempferol for SULT1A1 Homo sapiens: aryl sulfotransferase SULT1A1 Homo sapiens (SEQ ID NO: 2) (protein, listed as Homo sapiens) MELIQDTSRPPLEYVKGVPLIKYFAEALGPLQSFQARPDDLLISTYPKSGTTWVSQILDMIYQGGDLEKCHRAPIFMRVPFLEFKAPGIPSGMETLKDTPAPRLLKTHLPLALLPQTLLDQKVKVVYVARNAKDVAVSYYHFYHMAKVHPEPGTWDSFLEKFMVGEVSYGSWYQHVQEWWELSRTHPVLYLFYEDMKENPKREIQKILEFVGRSLPEETVDFMVQHTSFKEMKKNPMTNYTTVPQEFMDHSISPFMRKGMAGDWKTTFTVAQNERFDADYAEKMAGCSLSFRSEL
[A] 97

[Q] # repeat for SULT1A1 Equus caballus: aryl sulfotransferase SULT1A1 Equus caballus (SEQ ID NO: 3) (protein, listed as Equus caballus) MELIQDTSRPPLKYVKGVPLIKYFAEALGPLQSFQARPDDLLISTYPKSGTTWVSEILDMIYHGGDLEKCRRAPIFIRVPFLEFKAPEIPSGVEVLKDTPAPRLLKTHLPLSLLPQTLLDQKVKVVYLARNAKDVAVSYYHFYRMAKVHPDPGTWDSFLEKFMAGEVSYGSWYKHVQEWWELSHTHPVLYLFYEDMKENPKKEIQKILEFVGRSLPEETLDRIVQHTSFKEMKKNPMANYSTIPCDIMDHNISAFMRKGIAGDWKNTFTVAQNEHFDTDYAEKMAGCKLSFRSEV
[A] 96
